Hey, just so you know, these numbers are from paper PMC10454854.

Biological target: T1, cjRecR (Campylobacter jejuni, UniProt Q9PN35 1-190)
T1 sequence: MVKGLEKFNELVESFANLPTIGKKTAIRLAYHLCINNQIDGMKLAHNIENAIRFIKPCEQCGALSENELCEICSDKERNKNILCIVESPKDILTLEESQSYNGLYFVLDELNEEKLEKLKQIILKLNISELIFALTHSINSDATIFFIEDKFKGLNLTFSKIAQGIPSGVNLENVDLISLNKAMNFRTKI
Assay: fluorescence polarization; Fluorescence polarization: 0.8 nM fluorescein 40-mer ssDNA, protein up to 100 uM, one-site fit; buffer, salt, pH and temperature not stated
Details: protein: recombinant; tags: His6 tag removed with thrombin; chain copies: 4; single strand
recordedEndpoint: Kd (µM)

[[record]]
binder = "TTATAGGCATATAGGAGTAATTTTCTTGGGCTATGCAGTA (ssDNA) [40-mer ssDNA]"
value = 6.8

